- Tested on: HeLa
- test summary: Primary qHTS to identify gynecologic anti-cancer compounds using libraries of approved drugs and bioactive compounds (AID 1345084); further: nearly all actives have a fitted effect of over 55% in size
- conditions: Gynecologic cancer cell panel viability, ATPlite luminescence, 48 h; series mostly up to 57.5 µM
Results filed as inconclusive are left out. Active and inactive are the calls of the source. The call rests on the fitted dose curve; in most records, active means well fitted cell-killing curve with a large enough effect; inconclusive means small, poorly fitted or top-dose-only effect, or effect the other way; inactive means flat fitted curve, though single readings scatter.
Log the outcome using a class from 1.0 (active), 0.0 (inactive)

molecule	tested target	category label
CC(C)Cc1ccc(CC(=O)O)cc1	HeLa	0.0
O=C(CCN1CCN2CCCC2C1)N1c2ccccc2Sc2ccc(Cl)cc21 (stereo unspecified)	HeLa	0.0
NC(=O)c1ccccc1O	HeLa	0.0

**Q:** Assay outcome for NCc1ccccc1Sc1ccccc1CO : what was it?
**A:** 0.0

**Q:** Test call, this molecule: CO[C@]12C[C@@H](COC(=O)c3cncc(Br)c3)CN(C)[C@@H]1Cc1cn(C)c3cccc2c13
**A:** 0.0

**Q:** // outcome(item) with item = CC(=O)OCC(=O)[C@H]1CC[C@H]2[C@@H]3CCC4=CC(=O)CC[C@]4(C)[C@H]3CC[C@]12C
**A:** 1.0
